target: UniProtKB P50053; assay: KHK Biochemical Assay (IC50), ADP-Glo, KHK-C; settings: ADP-Glo; average of at least two separate assays
PROPERTY_NAME: pIC50
Numbers only, as −log10 of the molar value.

# count of solved cases: 2
C[C@H]1CCN1c1nc2c(c(-c3ccc4c(c3)C(=O)NC4)n1)CCC2 [Example 207]; 7.55
C[C@H]1[C@H](O)CN1c1nc(-c2ccc(C3(N)CCS(=O)(=O)C3)cc2)c2c(n1)C(F)(F)CC2 (stereo partly shown) [Example 793]; 8.32

Report pIC50 for each item below.
1. C[C@H]1CCN1c1nc2c(c(-c3ccc4c(c3)C3(CCC3)CNC4=O)n1)CCC2 [Example 865]
2. C[C@H]1[C@H](O)CN1c1nc2c(c(-c3ccc(CN)s3)n1)CCC2 [Example 363]

## Output
[7.76, 7.54]

Report pIC50 for each item below.
1. C[C@H]1CCN1c1nc2c(c(-c3ccc(C(O)C4(C#N)CC4)cc3)n1)CCC2 (stereo partly shown) [Example 255]
2. C[C@H]1CCN1c1nc2c(c(-c3ccc(S(C)(=O)=O)cc3)n1)CCC2 [Example 354]

## Output
[7.18, 6.86]

Report pIC50 for each item below.
1. NS(=O)(=O)c1cccc(-c2nc(N3CC4CCCC43)nc3c2CCC3)c1 (racemic) [Example 79]
2. NC1(c2ccc(-c3nc(N4CC[C@H]4C(F)F)nc4c3CCC4(F)F)cc2)CS(=O)(=O)C1 (single isomer, unassigned) [Example 801]
3. C[C@H]1CCN1c1nc2c(c(-c3cccc(-c4noc(=O)[nH]4)c3)n1)CCC2 [Example 872]
4. COc1cc(-c2nc(N3CC[C@@H]3C)nc3c2CCC3)ccc1C#N [Example 310]
5. CCS(=N)(=O)c1cc(-c2nc(N3CC[C@@H]3C)nc3c2CCC3)ccc1OC (stereo partly shown) [Example 861]

## Output
1: 5.30; 2: 7.28; 3: 7.54; 4: 6.26; 5: 7.82

Report pIC50 for each item below.
1. C[C@H]1[C@H](O)CN1c1nc2c(c(-c3cccc(NS(=O)(=O)CC(=O)O)c3)n1)CCC2 [Example 82]
2. COC1Cc2cc(-c3nc(N4CC[C@@H]4C)nc4c3CCC4)ccc2C1NS(C)(=O)=O (stereo partly shown) [Example 892]
3. C[C@H]1CCN1c1nc2c(c(-c3cccc(C(=O)NCC(=O)O)c3)n1)CCC2 [Example 66]
4. CC1CC(NS(C)(=O)=O)c2ccc(-c3nc(N4CC[C@@H]4C)nc4c3CCC4)cc21 (stereo partly shown) [Example 894]

## Output
1. 7.83
2. 7.00
3. 7.26
4. 7.69

====

target: human KHK-C (Homo sapiens (Human), UniProt P50053); assay: KHK Biochemical Assay (IC50), ADP-Glo, KHK-C; settings: ADP-Glo; average of at least two separate assays
Sequence (P50053 whole entry): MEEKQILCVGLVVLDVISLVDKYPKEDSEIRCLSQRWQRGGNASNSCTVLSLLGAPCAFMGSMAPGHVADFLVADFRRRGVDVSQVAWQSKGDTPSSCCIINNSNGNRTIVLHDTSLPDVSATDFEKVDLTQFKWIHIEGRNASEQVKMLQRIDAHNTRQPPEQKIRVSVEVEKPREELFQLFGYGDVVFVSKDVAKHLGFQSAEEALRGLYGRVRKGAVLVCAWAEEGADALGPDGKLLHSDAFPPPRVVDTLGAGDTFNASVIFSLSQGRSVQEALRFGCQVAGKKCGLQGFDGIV
PROPERTY_NAME: IC50 (nM)
Give bare numbers, in nM.

C[C@H]1CCN1c1nc2c(c(-c3ccc(C(C)(C)O)s3)n1)CCC2; 27.9
Cc1cc(-c2nc(N3CC[C@@H]3C)nc3c2CCC3)ccc1C(=O)NCCO; 79.9
NC1(c2ccc(-c3nc(N4CC[C@@H]4C(F)(F)F)nc4c3CCC4(F)F)s2)COC1; 1.7
C[C@H]1CCN1c1nc2c(c(-c3cccc(C(=O)NCCN)c3)n1)CCC2; 42.7
C[C@H]1CCN1c1nc2c(c(-c3cccc(C(=O)NCCNC(=O)OC(C)(C)C)c3)n1)CCC2; 309

Report IC50 for each item below.
1. C[C@H]1CCN1c1nc2c(c(-c3ccc4ncn(C)c4c3)n1)CCC2
2. C[C@@H]1CNC(=O)c2ccc(-c3nc(N4C[C@@H](O)[C@@H]4C)nc4c3CCC4(F)F)cc2O1

## Output
[35.3, 8.4]

Report IC50 for each item below.
1. C[C@H]1CCN1c1nc2c(c(-c3cc(NS(C)(=O)=O)cc(C(N)=O)c3)n1)CCC2
2. C[C@H]1[C@H](O)CN1c1nc2c(c(-c3cccc([C@@H]4C[C@H]4C(=O)O)c3)n1)CCC2 (single isomer, unassigned)
3. C[C@H]1CCN1c1nc2c(c(-c3cncc(S(N)(=O)=O)c3)n1)CCC2
4. C[C@H]1CCN1c1nc2c(c(-c3ccc4c(c3)CC(C(=O)O)C4)n1)CCC2 (some centres unmarked)
5. C[C@H]1CCN1c1nc2c(c(-c3cccnc3)n1)CCC2
6. C[C@H]1CCN1c1nc2c(c(-c3ccc(C(N)=O)c(NS(C)(=O)=O)c3)n1)CCC2

## Output
1. 33.6
2. 46.2
3. 108
4. 55.3
5. 165
6. 244

Source listed as patent US12410160B2.
